Source of measurements: the supplement of paper PMC11417369

system: PfSIP2 AP2 domain 1 (GST-tagged); experiment: gcPBM binding intensity (ln(normalized median fluorescence intensity)); higher = stronger DNA binding
Over roughly 25,000 sequences, “ln(normalized median fluorescence intensity)” has its median near 7.1; the highest 2% begin near 10. The list comes from a sample in which the highest values are over-represented; it also holds close analogues and randomly drawn sequences.
Attribute Measured: gcPBM binding intensity (ln)
Form field (numeric): enter value without unit.

Consider the worked cases shown below.
{"columns": ["Primary Sequence", "gcPBM binding intensity (ln)"],
 "data": [
  ["ATATATATTTTAATAACACACATATATTATATTATA [CACACA_site4387]", 7.06],
  ["TTCTATGCATTTATAGTGCATGTAAAATATAAGATA [GTGCAC_site9466]", 10.9],
  ["TTTAACTTTTATATAACACACATATTGTAATTATGT [CACACA_site6486]", 7.05],
  ["TAAAAGAAATAATATACACACATATATAAAAATAAA [CACACA_site1329]", 6.86]
]}

Consider the sequence shown here: TTTTATCATCTTTTTACATTATGTATAAATATTTTC [CACACA_negctrl_site206] What is its recorded gcPBM binding intensity (ln)? 6.99

Can you handle AAGTATTATTTTTATGCATGTGAAGTGCAAAATAAA [TGCATGCA_site198] next? 9.56
